Consider the following compounds and their measured alpha2 affinity, 10 μM readings.
tested on: α2-subtype of the human α-adrenergic receptor; experiment: SPA assay for affinity for the α2-subtype of the human α-adrenergic receptor (high throughput screening); type: binding; conditions: at a concentration of 10 μM
readout.kind: alpha2 affinity, 10 μM (%)

# compound, readout.kind, observed.result
data = [
    ("CC(C)(C)Nc1c(-c2ccccc2F)nc2sccn12 [Example 44]", "alpha2 affinity, 10 μM", 38),
    ("CCCCN(C(C)=O)c1c(-c2ccc(C(C)(C)C)cc2)nc2sc(C)cn12 [Example 56]", "alpha2 affinity, 10 μM", 46),
    ("Cc1ccc(C)c(-c2nc3nc[nH]n3c2NC(C)(C)CC(C)(C)C)c1 [Example 54]", "alpha2 affinity, 10 μM", 56),
    ("CC(C)(C)CC(C)(C)Nc1c(-c2ccccc2Br)nc2nc[nH]n12 [Example 47]", "alpha2 affinity, 10 μM", 42),
    ("CCCCN(C(C)=O)c1c(-c2c(F)cccc2Cl)nc2nc[nH]n12 [Example 55]", "alpha2 affinity, 10 μM", 39),
    ("c1ccc2c(-c3nc4nc[nH]n4c3NC3CCCCC3)cccc2c1 [Example 46]", "alpha2 affinity, 10 μM", 46),
    ("Cc1ccc(C)c(-c2nc3sccn3c2NC2CCCCC2)c1 [Example 51]", "alpha2 affinity, 10 μM", 39),
    ("CC(C)(C)Nc1c(-c2cccc3ccccc23)nc2nc[nH]n12 [Example 45]", "alpha2 affinity, 10 μM", 41),
    ("CC(C)(C)Nc1c(-c2ccccc2F)nc2nc[nH]n12 [Example 43]", "alpha2 affinity, 10 μM", 34),
    ("Cc1ccc(-c2nc3nc[nH]n3c2NC(C)(C)CC(C)(C)C)c(C)c1 [Example 53]", "alpha2 affinity, 10 μM", 43),
    ("CC(=O)N(c1c(-c2ccc(C)cc2)nc2sccn12)C(C)(C)C [Example 52]", "alpha2 affinity, 10 μM", 51),
    ("CC(=O)Nc1ccc(-c2nc3nc[nH]n3c2NC2CCCCC2)cc1 [Example 48]", "alpha2 affinity, 10 μM", 36),
    ("Cc1ccc(-c2nc3sccn3c2NC2CCCCC2)c(C)c1 [Example 50]", "alpha2 affinity, 10 μM", 36),
    ("Cc1ccc(C)c(-c2nc3nc[nH]n3c2NC(C)(C)C)c1 [Example 49]", "alpha2 affinity, 10 μM", 38),
    ("CCCCNc1c(-c2ccc(C(C)(C)C)cc2)nc2sc(C)cn12 [Example 42]", "alpha2 affinity, 10 μM", 36),
]

Each recorded value in this set is attributed to patent US6936631B2.
